Data origin: paper PMC10786891

As shown below, each of these binders has a reported Kd value.
- system-under-test: T1, EsCas13d, nuclease-dead (Eubacterium siraeum, UniProt B0MS50, R295A;H300A;R849A;H854A)
- T1 sequence: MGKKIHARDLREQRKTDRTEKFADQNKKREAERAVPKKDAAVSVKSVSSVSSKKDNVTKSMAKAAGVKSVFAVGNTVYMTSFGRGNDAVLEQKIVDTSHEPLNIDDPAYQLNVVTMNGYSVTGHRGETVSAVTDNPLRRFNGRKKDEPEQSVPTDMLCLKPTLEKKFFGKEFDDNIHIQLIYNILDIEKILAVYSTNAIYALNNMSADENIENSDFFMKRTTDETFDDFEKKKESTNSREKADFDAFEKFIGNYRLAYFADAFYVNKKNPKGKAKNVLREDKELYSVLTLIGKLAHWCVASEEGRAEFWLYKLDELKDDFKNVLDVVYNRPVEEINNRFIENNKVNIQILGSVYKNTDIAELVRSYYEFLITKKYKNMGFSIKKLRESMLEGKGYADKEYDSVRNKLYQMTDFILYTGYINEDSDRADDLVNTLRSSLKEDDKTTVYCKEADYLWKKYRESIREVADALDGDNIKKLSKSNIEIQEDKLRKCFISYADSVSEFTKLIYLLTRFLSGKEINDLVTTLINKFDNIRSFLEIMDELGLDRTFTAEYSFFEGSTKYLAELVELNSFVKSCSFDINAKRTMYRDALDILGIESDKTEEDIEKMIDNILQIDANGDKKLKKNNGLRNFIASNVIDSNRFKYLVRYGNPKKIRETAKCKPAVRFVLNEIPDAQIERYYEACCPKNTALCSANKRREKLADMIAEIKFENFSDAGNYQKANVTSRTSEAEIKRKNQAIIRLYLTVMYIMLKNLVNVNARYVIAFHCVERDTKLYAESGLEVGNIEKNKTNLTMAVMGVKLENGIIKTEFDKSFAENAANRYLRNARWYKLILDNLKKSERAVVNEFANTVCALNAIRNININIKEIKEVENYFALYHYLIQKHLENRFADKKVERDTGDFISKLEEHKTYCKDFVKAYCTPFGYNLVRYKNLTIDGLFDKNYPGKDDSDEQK
- assay-comment: crRNA (strand 1, pre-loaded); Mg2+; 40 mM Tris-HCl pH 7.5, 150 mM NaCl, 6 mM MgCl2, 1 mM DTT, 0.1% Tween-20, 0.2 mg/ml BSA; 25 C; 10 min per concentration, then washed
- condition-summary: tags: His6-TwinStrep-SUMO cleaved; N-terminal SNAP kept (SNAP-Surface 488); label: 3' end held by stalled T7 RNA polymerase

binder	Kd [nM]
target 2 MT 5'PFS CAC 3'PFS CAC (mixed) RNA 1: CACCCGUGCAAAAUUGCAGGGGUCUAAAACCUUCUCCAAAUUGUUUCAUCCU RNA 2: GGGAAUGGAUCCACAUCUACGAAUUCCACAGGAUGAAACAAUUUGGAGAAGCACAGAUCGGAAGAGCACACGU	2.9
target 2 MT 5'PFS GUC 3'PFS ACG (mixed) RNA 1: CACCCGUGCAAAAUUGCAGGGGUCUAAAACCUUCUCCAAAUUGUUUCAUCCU RNA 2: GGGAAUGGAUCCACAUCUACGAAUUCGUCAGGAUGAAACAAUUUGGAGAAGACGAGAUCGGAAGAGCACACGU	16.1
target 2 MT 5'PFS GUU 3'PFS CGG (mixed) RNA 1: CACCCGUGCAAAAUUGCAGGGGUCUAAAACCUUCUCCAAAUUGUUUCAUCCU RNA 2: GGGAAUGGAUCCACAUCUACGAAUUCGUUAGGAUGAAACAAUUUGGAGAAGCGGAGAUCGGAAGAGCACACGU	17
target 1 MT 5'PFS UAC 3'PFS UUG (mixed) RNA 1: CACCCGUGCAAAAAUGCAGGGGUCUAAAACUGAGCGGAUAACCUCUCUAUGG RNA 2: GGGAAUGGAUCCACAUCUACGAAUUCUACCCAUAGAGAGGUUAUCCGCUCAUUGAGAUCGGAAGAGCACACGU	7.55
target 3 G4U,U8C (mixed) RNA 1: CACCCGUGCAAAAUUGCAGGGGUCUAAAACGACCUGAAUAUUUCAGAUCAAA RNA 2: GGGAAUGGAUCCACAUCUACGAAUUCGUUUUUGAUCUGAAAUACUCAUGUCUGCAGAUCGGAAGAGCACACGU	39
target 1 U11A,G13U (mixed) RNA 1: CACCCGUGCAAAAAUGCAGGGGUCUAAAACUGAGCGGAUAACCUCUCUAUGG RNA 2: GGGAAUGGAUCCACAUCUACGAAUUCGUACCAUAGAGAUGAUAUCCGCUCACCGAGAUCGGAAGAGCACACGU	34.2
target 2 MT 5'PFS GCC 3'PFS UAC (mixed) RNA 1: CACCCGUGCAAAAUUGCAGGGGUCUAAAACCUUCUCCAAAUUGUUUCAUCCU RNA 2: GGGAAUGGAUCCACAUCUACGAAUUCGCCAGGAUGAAACAAUUUGGAGAAGUACAGAUCGGAAGAGCACACGU	20
target 2 MT 5'PFS CGG 3'PFS AUA (mixed) RNA 1: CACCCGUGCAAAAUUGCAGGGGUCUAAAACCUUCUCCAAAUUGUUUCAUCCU RNA 2: GGGAAUGGAUCCACAUCUACGAAUUCCGGAGGAUGAAACAAUUUGGAGAAGAUAAGAUCGGAAGAGCACACGU	4.1
target 1 U10G,A16G (mixed) RNA 1: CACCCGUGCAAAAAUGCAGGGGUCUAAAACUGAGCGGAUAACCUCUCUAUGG RNA 2: GGGAAUGGAUCCACAUCUACGAAUUCGUACCAUAGGGAGGUGAUCCGCUCACCGAGAUCGGAAGAGCACACGU	42.2
target 1 del8,del11 (mixed) RNA 1: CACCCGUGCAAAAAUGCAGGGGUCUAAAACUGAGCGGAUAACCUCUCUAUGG RNA 2: GGGAAUGGAUCCACAUCUACGAAUUCGUACCAUAGAGAGGUACCGCUCACCGAGAUCGGAAGAGCACACGU	25.7
target 1 insU 3' of 6,insA 3' of 6 (mixed) RNA 1: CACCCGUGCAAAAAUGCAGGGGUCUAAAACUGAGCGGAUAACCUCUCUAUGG RNA 2: GGGAAUGGAUCCACAUCUACGAAUUCGUACCAUAGAGAGGUUAUCCUAGCUCACCGAGAUCGGAAGAGCACACGU	13.8
target 1 MT 5'PFS ACA 3'PFS UGU (mixed) RNA 1: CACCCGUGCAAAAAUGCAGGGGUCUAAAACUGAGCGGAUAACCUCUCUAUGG RNA 2: GGGAAUGGAUCCACAUCUACGAAUUCACACCAUAGAGAGGUUAUCCGCUCAUGUAGAUCGGAAGAGCACACGU	45
target 2 MT 5'PFS GAG 3'PFS AGU (mixed) RNA 1: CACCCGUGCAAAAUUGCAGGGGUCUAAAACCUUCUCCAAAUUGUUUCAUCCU RNA 2: GGGAAUGGAUCCACAUCUACGAAUUCGAGAGGAUGAAACAAUUUGGAGAAGAGUAGAUCGGAAGAGCACACGU	9.1
target 3 insU 3' of 5,insG 3' of 5 (mixed) RNA 1: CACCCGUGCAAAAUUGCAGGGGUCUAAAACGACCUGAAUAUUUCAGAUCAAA RNA 2: GGGAAUGGAUCCACAUCUACGAAUUCGUUUUUGAUCUGAAAUAUUCAUGGGUCUGCAGAUCGGAAGAGCACACGU	4.74
